B1: Ankyrin-2, residues 3571 to 3650; numbered along this chain, Q01484 (parent)
chain: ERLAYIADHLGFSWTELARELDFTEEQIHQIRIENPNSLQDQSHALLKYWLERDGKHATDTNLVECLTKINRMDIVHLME

Variants of: B1
Test: abundance fitness (aPCA) (normalised: wild type 0, dead -1); higher = more abundant; growth selection in yeast, the domain comes from the species named
Conditions: Homo sapiens
Group membership follows abundance fitness per the scheme low end = under -0.2, middle = from -0.2 up to -0.05, high end = -0.05 and over

INPUT: Band for the recorded abundance fitness of "A58Y" ?
OUTPUT: high end

INPUT: Hey, which category is "I31W" in, do you know?
OUTPUT: low end

INPUT: The entry to classify is "L46C" ; which class holds it?
OUTPUT: high end

INPUT: Lab note: which band did "E52P" land in?
OUTPUT: low end

INPUT: Hi, small favor: classify "T15Q" by its abundance fitness when you get a moment.
OUTPUT: middle

INPUT: Which abundance fitness category applies to "W14L" here?
OUTPUT: low end

INPUT: Any idea which band "K56D" is in?
OUTPUT: high end

INPUT: Place this variant in its band: "I33T"
OUTPUT: high end

INPUT: Hey, which category is "E26K" in, do you know?
OUTPUT: high end

INPUT: Which class does "A58I" fall in?
OUTPUT: low end

INPUT: Note: place this variant into its band. Item: "H44W"
OUTPUT: middle

INPUT: Class (by measured abundance fitness) for "L17I"
OUTPUT: high end

INPUT: State the class of the variant shown: "T24R"
OUTPUT: high end

INPUT: Could you place "L51S" in its proper category? Many thanks.
OUTPUT: middle

INPUT: Tag the class for "A18W"
OUTPUT: low end

INPUT: // bin(item) where item = "R32P"
OUTPUT: low end

INPUT: Input "Q42R" ; output its category
OUTPUT: middle

INPUT: Hello team, could you let me know which band the following variant falls into: "E25C"
OUTPUT: low end

INPUT: Lab note: which band did "W14Q" land in?
OUTPUT: low end

INPUT: Field: class (abundance fitness) — entry: "E26D"
OUTPUT: middle

INPUT: Textbook exercise: identify the category of the variant given here, "G55C" , according to its measured value.
OUTPUT: middle
